B1: Pistol ribozyme (parent)
chain: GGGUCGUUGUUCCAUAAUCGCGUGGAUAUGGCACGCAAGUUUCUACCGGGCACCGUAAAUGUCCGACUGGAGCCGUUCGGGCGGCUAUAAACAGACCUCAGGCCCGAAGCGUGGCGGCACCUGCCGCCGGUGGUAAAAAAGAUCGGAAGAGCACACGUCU

Variants of: B1
Experiment: aptazyme ON/OFF ratio, guanine; higher = stronger switching; co-transcriptional cleavage with and without guanine
Property Label: aptazyme ON/OFF ratio
Answers are plain numbers.

Examples with their reported aptazyme ON/OFF ratio follow.
>>> value_reported("U8C U10C U11G C12A C13G")
1.21
>>> value_reported("U8C G9A U10C C12G C13U")
1.25
>>> value_reported("U8A G9U U10A U11A C12G C13U")
1.38
>>> value_reported("U7G U8A U10G C12U C13U")
1.12
>>> value_reported("U7G U8C G9A U11A C12G C13A")
1.05

Could I get aptazyme ON/OFF ratio for every one of these entries?
1. U7C U8G G9C U10A U11A C12A C13U
2. G9C U11C C12G
3. U7G U8G G9A U11C C12U C13G
4. U7A G9A U10A U11G C12U C13G
5. U7A U8G C12U C13U
6. U7C U8C G9U U11A
7. U7C U8C G9U C12U
8. U8C G9U U11G C12A C13U

Result ::
1.26
1.22
1.44
1.15
1.53
1.64
1.61
1.26

Respectfully, I request aptazyme ON/OFF ratio for each entry included below.
1. U7G U8A G9C U10C U11A C12U C13A
2. U7C U8C U10C C12G C13G
3. U7C G9C
4. U7A U8C G9C U10C C12U
5. U8A G9A U10G U11A C12G C13A
6. U7C G9A U10A U11C C12G
7. U7G U8G G9C C13U
8. U7A G9C U10A U11C C12G

Result ::
[1.02, 1.18, 1.03, 1.04, 1.24, 1.35, 1.47, 1.21]

The reported measurements were obtained from the RNAGym collection of RNA variant scans (doi:10.1021/acssynbio.7b00057).
